Origin of values: ChEMBL document CHEMBL5576125

# experimentNotes: Metabolic stability in human hepatocytes assessed as clearance at 2 uM measured upto 120 mins by LC-MS/MS analysis
# Type: ADME, cell-based, Hepatocyte

{"columns": ["recordSmiles", "CLhep predicted at 2 µM, mL/min/kg"],
 "data": [
  ["Cn1ccc([C@H]2C[C@H](N(c3cc(Cl)c(NC(=O)c4ccnn(-c5ccc(F)cn5)c4=O)cc3F)c3nccn4nccc34)C2)n1", 5],
  ["Cn1ccc([C@H]2C[C@H](N(c3cc(F)c(NC(=O)c4ccnn(-c5ccc(F)cn5)c4=O)cc3F)c3cc(F)cn4nccc34)C2)n1", 3],
  ["Cc1cc(N(c2cc(F)c(NC(=O)c3ccnn(-c4ccc(F)cn4)c3=O)cc2F)[C@H]2C[C@H](c3ccn(C)n3)C2)c(F)cn1", 9],
  ["Cn1ccc([C@H]2C[C@H](N(c3cc(F)c(NC(=O)c4ccnn(-c5ccc(F)cn5)c4=O)cc3F)c3nccn4nccc34)C2)n1", 13]
]}
